biological target: Recombinant human factor D (Homo sapiens (Human)); assay: Human Complement Factor D Assay: Method 1; type: biochemical; conditions: Factor D inhibition, Method 1: 10 nM factor D, 1 hour incubation with compound at room temperature, substrate Z-Lys-thiobenzyl, fluorescence readout; read-out: IC50
Sequence (P00746 26-253): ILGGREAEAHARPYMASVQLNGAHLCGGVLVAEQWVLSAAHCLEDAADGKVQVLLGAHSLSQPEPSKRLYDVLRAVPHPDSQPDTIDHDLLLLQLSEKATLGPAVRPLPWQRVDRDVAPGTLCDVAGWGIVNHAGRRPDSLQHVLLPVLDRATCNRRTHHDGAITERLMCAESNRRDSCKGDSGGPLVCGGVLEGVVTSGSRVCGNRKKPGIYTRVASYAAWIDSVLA
Task for the reader: assign each of the following molecules its reported IC50.
Kindly answer with a numeric value in nM, unit omitted.

Query: For the molecule shown here, CC(=O)c1nn(CC(=O)N2[C@@H]3C[C@@H]3C[C@H]2C(=O)N[C@@H]2C[C@H]2c2ccccc2)c2ccncc12 , give the reported IC50.
Reply: 147

Query: Ok, now Cc1cc2c(C(N)=O)nn(CC(=O)N3C[C@H](F)C[C@H]3C(=O)N[C@@H]3C[C@H]3c3ccccc3F)c2cn1
Reply: 90

Query: Ok, now NC(=O)c1nn(CC(=O)N2C[C@H](F)C[C@H]2C(=O)N[C@@H]2C[C@H]2c2ccc(Cl)cc2)c2cnccc12
Reply: 309

Query: Ok, now CC(=O)c1nn(CC(=O)N2[C@@H]3C[C@@H]3C[C@H]2C(=O)N[C@H]2C[C@@H]2c2ccccc2F)c2ncccc12
Reply: 791

Query: Ok, now CC(=O)c1nn(CC(=O)N2[C@@H]3C[C@@H]3C[C@H]2C(=O)NC2CCC(c3ccccc3)CC2)c2cnccc12 (stereo partly shown)
Reply: 1060

Query: Ok, now CC(=O)c1nn(CC(=O)N2[C@@H]3C[C@@H]3C[C@H]2C(=O)NC2CC(c3ccccc3)C2)c2ncccc12 (stereo partly shown)
Reply: 902

Query: Ok, now Cc1cc2c(C(N)=O)nn(CC(=O)N3[C@@H]4C[C@@H]4C[C@H]3C(=O)N[C@H]3C[C@]3(F)c3ccccc3)c2cn1
Reply: 1190

Query: Ok, now CC(=O)c1nn(CC(=O)N2[C@@H]3C[C@@H]3C[C@H]2C(=O)N[C@H]2C[C@@H]2c2cccc(Cl)c2)c2ncccc12
Reply: 1580

Query: Ok, now CC(=O)c1nn(CC(=O)N2[C@@H]3C[C@@H]3C[C@H]2C(=O)N[C@@H]2C[C@@]2(F)c2ccccc2)c2ncccc12
Reply: 66

Query: Ok, now CC(=O)c1nn(CC(=O)N2[C@@H]3C[C@@H]3C[C@H]2C(=O)N[C@@H]2C[C@H]2c2ccccc2Cl)c2cnccc12
Reply: 30

Query: Ok, now CC(=O)c1nn(CC(=O)N2[C@@H]3C[C@@H]3C[C@H]2C(=O)N[C@@H]2C[C@H]2c2ccccc2)c2ncccc12
Reply: 123

Query: Ok, now NC(=O)c1nn(CC(=O)N2[C@@H]3C[C@@H]3C[C@H]2C(=O)NC2CC2(F)c2ccccc2F)c2ccccc12 (single isomer, unassigned) [Example 52]
Reply: 367

Query: Ok, now NC(=O)c1nn(CC(=O)N2[C@@H]3C[C@@H]3C[C@H]2C(=O)N[C@@H]2C[C@H]2c2ccccc2)c2cnccc12
Reply: 65

Query: Ok, now NC(=O)c1nn(CC(=O)N2[C@@H]3C[C@@H]3C[C@H]2C(=O)N[C@@H]2C[C@@]2(F)c2ccccc2)c2ccccc12
Reply: 48

Query: Ok, now Cc1cc2c(C(N)=O)nn(CC(=O)N3[C@@H]4C[C@@H]4C[C@H]3C(=O)N[C@@H]3C[C@@]3(F)c3ccccc3)c2cn1
Reply: 30

Query: Ok, now NC(=O)c1nn(CC(=O)N2[C@@H]3C[C@@H]3C[C@H]2C(=O)N[C@@H]2C[C@H]2c2ccccc2)c2ncccc12
Reply: 172

Query: Ok, now CC(=O)c1nn(CC(=O)N2[C@@H]3C[C@@H]3C[C@H]2C(=O)N[C@@H]2C[C@H]2c2ccccc2F)c2cc(C(=O)O)ccc12
Reply: 46

Query: Ok, now Cc1cc2c(C(N)=O)nn(CC(=O)N3[C@@H]4C[C@@H]4C[C@H]3C(=O)N[C@@H]3C[C@H]3c3ccccc3)c2cn1
Reply: 115

Query: Ok, now NC(=O)c1nn(CC(=O)N2[C@@H]3C[C@@H]3C[C@H]2C(=O)NC2CC2(F)c2ccccc2F)c2ccccc12 (single isomer, unassigned) [Example 51]
Reply: 992

Query: Ok, now CC(=O)c1nn(CC(=O)N2[C@@H]3C[C@@H]3C[C@H]2C(=O)N[C@H]2C[C@]2(F)c2ccccc2)c2cnccc12
Reply: 991

Query: Ok, now NC(=O)c1nn(CC(=O)N2[C@@H]3C[C@@H]3C[C@H]2C(=O)N[C@H]2C[C@]2(F)c2ccccc2)c2cnccc12
Reply: 3650

Query: Ok, now NC(=O)c1nn(CC(=O)N2[C@@H]3C[C@@H]3C[C@H]2C(=O)N[C@H]2C[C@]2(F)c2ccccc2)c2ccccc12
Reply: 635
